protocol-details: qHTS assay to test for compound auto fluorescence at 460 nm (blue) in HEK293 cell free culture (AID 720681)
conditions: cell-free medium, autofluorescence 405/460 nm (blue); series mostly up to 91.3 µM
Calls of active or inactive are those of the source. Calls follow the shape of the dose curve; as a rule, active = well fitted curve in the direction sought with a large enough effect in the repeat runs; inconclusive = weak or mixed curves; inactive = flat fitted curve, though single readings scatter.

molecule: C=CC(=O)OCC(O)COc1ccccc1 (stereo not drawn)
fluorescence, % of fluorescent control: inactive

molecule: S=P(N1CC1)(N1CC1)N1CC1
fluorescence, % of fluorescent control: inactive

molecule: CCCN(CCc1cccs1)[C@H]1CCc2c(O)cccc2C1
fluorescence, % of fluorescent control: inactive

molecule: CC1(C)C(=O)N(Br)C(=O)N1Br
fluorescence, % of fluorescent control: inactive

molecule: C1CC(COCC2CO2)CCC1COCC1CO1 (stereo not drawn)
fluorescence, % of fluorescent control: inactive

molecule: CCOC(=O)C1=C(C)NC(C)=C(C(=O)OCC)C1c1ccccc1/C=C/C(=O)OC(C)(C)C
fluorescence, % of fluorescent control: inactive

molecule: CCCCCCCCCCOCC(O)CN (stereo not drawn)
fluorescence, % of fluorescent control: inactive

molecule: CC(C)(C)C1=CC(=O)C=C(C(C)(C)C)C1=O
fluorescence, % of fluorescent control: inactive

molecule: CC(C)=C1CC[C@@H](C)CC1=O
fluorescence, % of fluorescent control: inactive

molecule: Clc1ccccc1CN1CCc2sccc2C1
fluorescence, % of fluorescent control: inactive

molecule: CC(=O)OC(OC(C)=O)c1ccc([N+](=O)[O-])o1
fluorescence, % of fluorescent control: inactive

molecule: Clc1ccc(C(Cn2ccnc2)OCc2ccsc2Cl)c(Cl)c1 (stereo not drawn)
fluorescence, % of fluorescent control: inactive

molecule: COC(=O)[C@]1(C)CCC[C@@]2(C)[C@H]1CC=C1C=C(C(C)C)CC[C@@H]12
fluorescence, % of fluorescent control: inactive

molecule: CCCCC(CC)COC(=O)c1ccc(O)cc1 (stereo not drawn)
fluorescence, % of fluorescent control: inactive

molecule: Cc1c(C(=O)O)cccc1[N+](=O)[O-]
fluorescence, % of fluorescent control: inactive

molecule: C=CC(=O)OCCC#N
fluorescence, % of fluorescent control: inactive

molecule: O=C1NC2CCCCN2C12CCN(CCCN1c3ccccc3CCc3ccc(Cl)cc31)CC2 (stereo not drawn)
fluorescence, % of fluorescent control: inactive

molecule: O=C(O)Cc1ccc(OCCNC[C@H](O)c2ccccc2)cc1
fluorescence, % of fluorescent control: inactive

molecule: C=CC(C)(CCC=C(C)C)OC(=O)/C=C/c1ccccc1 (stereo not drawn)
fluorescence, % of fluorescent control: inactive

molecule: O=Nc1ccc(NO)cc1
fluorescence, % of fluorescent control: inactive

molecule: CCCCCCCCCCCC(=O)N(CC)CC
fluorescence, % of fluorescent control: inactive

molecule: SCCCCCCCCS
fluorescence, % of fluorescent control: inactive

molecule: c1cc(OCC2CO2)cc(OCC2CO2)c1 (stereo not drawn)
fluorescence, % of fluorescent control: inactive

molecule: O=C(O)CCCCCCC(=O)O
fluorescence, % of fluorescent control: inactive

molecule: Cc1cccc(Br)c1
fluorescence, % of fluorescent control: inactive

molecule: CCCOc1sc(C(=O)N2CCC(c3cc(CN)ccc3F)CC2)c(C)c1Br
fluorescence, % of fluorescent control: inactive

molecule: C=CCCCCCCC=C
fluorescence, % of fluorescent control: inactive

molecule: CCCCCCCC/C=C\CCCCCCCC(=O)OCCOC(=O)CCCCCCC/C=C\CCCCCCCC
fluorescence, % of fluorescent control: inactive
